# Tested on: Plasmodium berghei
# measurement protocol: Luciferase/luciferin-expressing antifolate-resistant parasites were used to infect a culture of HepG2 cells that were pre-incubated with compounds. Infected hepatocytes emit light due to the luciferase reaction. Assay results are presented as the percent inhibition of light emission compared to control. […]
# Format: functional
# test settings: sporozoite, HEPG2TOX_HILL_SLOPE 2.88, HEPG2TOX_R_SQUARED 0.972, PBLUC_HILL_SLOPE 3.02, PBLUC_R_SQUARED 0.492, read-out: LUCIFERASE INFECTION ASSAY - IC50
measured endpoint: IC50 (µM)
# number only, unit µM dropped from output

Task: Given the entry CC(C)Cc1ccc(CN2CCC3(CC2)C(=O)N(CC(C)C)C(=O)N3C)cc1 , what IC50 was observed with Plasmodium berghei?
Output: 5.03
